Reference source for all entries: patent US4170649A

# Assay comment: Acute 7-day toxicity in mice (LD50)
# Assay context: mouse, in vivo, ip, single dose i.p., white NMRI-mice not fed, read-out: LD50 i.p.
Binarize LD50 at 168 h at 300 mg/kg; below is Fulfilled, at or above is Not fulfilled.

>>> df
                                        mol      group
0  CN1C(=CC(N)=O)CN=C(c2ccccc2C(F)(F)F)c2cc(Cl)ccc21  Fulfilled

Qu. Does the reported LD50 at 168 h of the following compound sit strictly below 300 mg/kg? `CN1C(=CC(N)=O)CN=C(c2ccccc2F)c2cc(Br)ccc21`
Ans. Not fulfilled

Qu. Lab note: confirm whether the reported LD50 at 168 h for this compound is below 300 mg/kg, equality not counting. compound: `CN1C(=CC(N)=O)CN=C(c2ccccc2Cl)c2cc(Cl)ccc21`
Ans. Not fulfilled

Qu. is_below(LD50 at 168 h, 300 mg/kg) for `CN1C(=CC(N)=O)CN=C(c2ccccc2F)c2cc(Cl)ccc21` ?
Ans. Not fulfilled

Qu. Lab log: compare recorded LD50 at 168 h with 300 mg/kg; is it strictly lower for `CN1C(=CC(N)=O)CN=C(c2ccccc2Cl)c2cc(Br)ccc21` ?
Ans. Not fulfilled

Qu. Item `CN1C(=CC(N)=O)CN=C(c2ccccc2)c2cc(Cl)ccc21` : LD50 at 168 h beneath 300 mg/kg, strictly?
Ans. Fulfilled
